Recorded values, source paper PMC7822874.

System: P. berghei-ANKA-GFP-LucCON liver stage parasites in HepG2-A16-CD81EGFP cells
Experiment: P. berghei liver stage Pb-Luc assay, Method 1 (UCSD, 1536-well); further: reference of the scale not given here
Type: cell-based, Plasmodium berghei
Conditions: Plasmodium berghei, 48 h, nominal 3 uM (10 mM stock); 4.5 uM for 15 mM, 3.6 uM for 12 mM, 6 uM for 20 mM stock; average of 2 wells, 1536-well plate; repeat 3; read-out: Pb-Luc signal, 3 uM, repeat 3
Measure Name: activity at 3 µM (%)
The reply should contain only the number, in %.

Recorded results for 3 compounds are shown here.
CCN(Cc1ccccc1)C(=O)CCC[C@@H]1[C@H]2CCCN3CCC[C@@H](CN1C(=O)c1ccccc1)[C@@H]23    99.6
O=C(O)c1ccc(-c2nc3cnccc3[nH]2)cc1    98.5
COc1ccc(OC)c(NC(=O)c2ccc3c(c2)N([S+](=O)([O-])c2ccccc2)CC3)c1    99.8

# next compound below
Inquiry: For Fc1ccc(N2CCCN(C[C@H]3[C@@H]4CNC[C@@H]43)CC2)cc1 , write its activity at 3 µM.
Reply text: 21.5

* * *

Experiment: in vitro
Conditions: human
Measure Name: AC50

Inquiry: For CC(=O)Nc1ccc(CN2CCc3nc(C(C)C)nc(-c4ccc(Cl)cc4)c3CC2)cc1 , write its AC50.
Reply text: > 20 µM

* * *

Assay: in vitro
Conditions: human, HepG2 cells; n = 1
Measure Name: CC50 at 48 h

O=C(NCCNc1ccnc2cc(Cl)ccc12)c1ccccc1F    27.3 µM
Oc1c(C(Nc2nccs2)c2ccc(C(F)(F)F)cc2)ccc2cccnc12 (stereo not drawn)    15.3 µM
C/C(=N\NC(=O)c1ccccc1OCc1ccc(F)cc1)c1ccccn1    17.2 µM
CN(C)CC(O)COc1ccc(C(C)(C)c2ccc(OCC(O)CN(C)C)cc2)cc1 (stereo not drawn)    21.7 µM
COc1cnc(-c2ccccn2)nc1Sc1c(Cl)cccc1Cl    24.3 µM
N=c1ccn(Cc2ccc(Cl)c(Cl)c2)cc1    30.6 µM
O=C(Cc1c[nH]c2ccccc12)N1CCc2c([nH]c(-c3ccc(F)cc3)nc2=O)C1    0.00432 µM
CN(C)C1CCN(Cc2cc(COCc3ccccc3)c3cccnc3c2O)C1 (stereo not drawn)    21.7 µM

# next compound below
Inquiry: For COc1ccc(C2C=C(c3ccc(F)cc3)Nc3nc(-c4ccc(Cl)cc4)nn32)cc1 (stereo not drawn) , write its CC50 at 48 h.
Reply text: 27.3 µM

* * *

Tested on: Plasmodium falciparum Dd2-attB (parental line), asexual blood stages
Construct: Dd2-attB, the isogenic parental line
Assay: microbe, parasite or virus in culture
Design: replicate k of 3 (each line is one of three independent assays; the three lines of one compound and parasite line follow each other)
Conditions: Plasmodium falciparum, DD2, 72 h; n = 1; read-out: Individual replicates / Log AC50 (converted)
Measure Name: AC50 (µM)
The reply should contain only the number, in µM.

Inquiry: For COC(=O)c1ccc(O)c2ncc(-c3ccc(C(=O)NCCCN(C)C)cc3)cc12 , write its AC50.
Reply text: 7.97

Inquiry: For Cc1nnc2c3ccccc3nc(N3CCN(c4ccccc4)CC3)n12 , write its AC50.
Reply text: 15.9

Inquiry: For O=C(O)c1ccnc2cc(C(OCCCN3CCCCC3)c3ccccc3Cl)[nH]c12 (stereo not drawn) , write its AC50.
Reply text: 7.97

Inquiry: For O=C(NCCCN1CCCCCC1)c1cccc(-c2cc(O)c3ncccc3c2)c1 , write its AC50.
Reply text: 20

Inquiry: For CN(C)CCn1nc(-c2ccccc2)nc1-c1ccccc1O , write its AC50.
Reply text: 7.1

Inquiry: For O=C(NCCCc1ccccc1)c1cccc(-c2cc(O)c3ncccc3c2)c1 , write its AC50.
Reply text: 7.1

Inquiry: For COc1ccc(NC(=O)CN2C(=O)CCn3nc(-c4cccn4C)cc32)cc1Cl , write its AC50.
Reply text: 8.94

Inquiry: For O=C(O)c1ccnc2cc(-c3nc4ccccc4n3CCN3CCCCC3)sc12 , write its AC50.
Reply text: 6.33

Inquiry: For Cn1cnc(-c2nccc3c(O)nc(OCCCC(F)(F)F)nc23)c1 , write its AC50.
Reply text: 15.9

Inquiry: For Oc1ccc(CCc2c(F)cccc2F)c2cccnc12 , write its AC50.
Reply text: 5.64

Inquiry: For Cc1cccc(C)c1Nc1c(-c2ccccn2)nc2ccc(Cl)cn12 , write its AC50.
Reply text: 15.9

Inquiry: For COc1ccc(NCc2cccn2-c2nnc(N3CCC(C)CC3)s2)c(OC)c1 , write its AC50.
Reply text: 17.8

Inquiry: For O=C(CC[S+](=O)([O-])c1nc(-c2cccs2)cc(C(F)(F)F)n1)Nc1ccc(OC(F)(F)F)cc1 , write its AC50.
Reply text: 17.8

Inquiry: For O=C(O)c1ccc(O)c2ncc(N3CCCN(C4CCCC4)CC3)cc12 , write its AC50.
Reply text: 17.8

Inquiry: For CCCOC(c1cc2nccc(C(=O)O)c2[nH]1)c1ccccc1Cl (stereo not drawn) , write its AC50.
Reply text: 7.97

Inquiry: For CC(c1ccccc1)N1CCN(c2cnc3c(O)ccc(C(=O)O)c3c2)CC1 (stereo not drawn) , write its AC50.
Reply text: 15.9

Inquiry: For Oc1ccc(CNc2ccccc2C(F)(F)F)c2cccnc12 , write its AC50.
Reply text: 12.6

Inquiry: For NC(=O)c1ccc(O)c2ncccc12 , write its AC50.
Reply text: 14.2

* * *

AC50 overview
Test system: Plasmodium falciparum Dd2-attB (parental line), asexual blood stages
Construct: Dd2-attB, the isogenic parental line
Test: microbe, parasite or virus in culture
Parameters: replicate k of 3 (each line is one of three independent assays; the three lines of one compound and parasite line follow each other)
Conditions: Plasmodium falciparum, DD2, 72 h; n = 1; read-out: Individual replicates / Log AC50 (converted)
Description: The overexpression of the fumarate-dependent yeast DHODH confers resistance to compounds that inhibit the parasite mETC, or the parasite DHODH enzyme that depends on ubiquinone provided by the parasite mETC. Assays were performed in three independent assays on a subset of compounds, and differences between the Dd2-attB parental line and the ScDHODH transgenic line were analyzed using two-sided Student’s t-tests.
The reply should contain only the number, in µM.

Recorded results for 2 compounds are shown here.
CC1CN(Cc2ccccc2)CCN1c1cnc2c(O)ccc(C(=O)O)c2c1 (centres unmarked) [NCGC00249384-01]    14.2
O=C1C(c2ccc(C(F)(F)F)cc2)=C(Nc2ccc(Cl)cc2)c2ccccc21 [NCGC00107304-01]    0.564

Inquiry: For Oc1ccc(-c2nc(C3CC3)nc3c2CCN(CC2CCCCC2)CC3)cc1 [NCGC00480361-01] , write its AC50.
Reply text: 4.48

Inquiry: For Oc1ccc(CNc2cc(Cl)ccn2)c2cccnc12 [NCGC00241028-01] , write its AC50.
Reply text: 5.03

Inquiry: For CC(C)OC(=O)c1ccnc2cc(C(OCCN3CCCCC3)c3cccc(NC(=O)/C=C/CN(C)C)c3)sc12 (centres unmarked) [NCGC00493268-01] , write its AC50.
Reply text: 5.03

Inquiry: For Oc1ccc(CNc2cccc(F)c2F)c2cccnc12 [NCGC00183376-01] , write its AC50.
Reply text: 17.8

Inquiry: For CCc1cccc(C)c1Nc1c(-c2ccc(N(C)C)cc2)nc2ncccn12 [NCGC00107648-03] , write its AC50.
Reply text: 15.9

Inquiry: For O=C(O)c1ccc(N(CCN2CCC(F)(F)CC2)c2ccc(F)cc2)cn1 [NCGC00390011-01] , write its AC50.
Reply text: 20

* * *

Assay: in vitro
Settings: human, hepg2-a16-cd81egfp cells, % viability
viability at 3 µM overview
The reply should contain only the number, in %.

Recorded results for 4 compounds are shown here.
CCOC(=O)c1c(CN(C)C)n(-c2ccc(C)cc2)c2cc(Br)c(O)cc12    97.3
O=C(c1ccc([N+](=O)[O-])o1)N1CCN(c2nc3c(Cl)cccc3s2)CC1    90.1
Cc1nn(-c2ccccc2)c(C)c1/C=N/Nc1nc2ccccc2[nH]1    87.3
COC(=O)C1=CN(Cc2ccc(OC)cc2)C=C(C(=O)OC)C1c1cc(OC)c(OC)c(OC)c1    105

Inquiry: For Cc1ccc(Sc2ccc(NC(=O)CCl)cc2)cc1C , write its viability at 3 µM.
Reply text: 93.9

Inquiry: For Cc1ccnc(NC(=O)c2cccc(S(=O)(=O)N3CCCc4ccccc43)c2)c1 , write its viability at 3 µM.
Reply text: 89.6

Inquiry: For O=C(CCl)Nc1cccc(-c2cnc3ccccc3n2)c1 , write its viability at 3 µM.
Reply text: 88.6

Inquiry: For COc1cc(OC)c(NC2=CC(=O)C(=O)c3ccccc32)cc1Cl , write its viability at 3 µM.
Reply text: 62

Inquiry: For CCOC(=O)C1CCN(Cc2cc(Cl)c3ccccc3c2O)CC1 , write its viability at 3 µM.
Reply text: 87.1

Inquiry: For CCCCN(C(=O)c1cccc(S(=O)(=O)N(C)c2ccc(C)cc2)c1)c1c(N)n(CCCC)c(=O)[nH]c1=O , write its viability at 3 µM.
Reply text: 91.7

Inquiry: For CC(C)c1ccc(CC(=O)N2CCCc3ncc(C(=O)Nc4cccnc4)cc32)cc1 , write its viability at 3 µM.
Reply text: 45.1

Inquiry: For O=C(Nc1ccc(Br)cc1)c1ccc(F)c([S+](=O)([O-])NC2CCCCCC2)c1 , write its viability at 3 µM.
Reply text: 78.6
